- Method: Plasma clearance in rat administered with 0.5 mg/kg, iv
- Assay type: ADME, organism-based
- Parameters: dose 0.5 mg/kg, route intravenous
Experimental Readout: clearance (mL/min/kg)

(A) CN1CCC(Oc2ccc(-c3ccc(C(=O)NC4(C(=O)NCC#N)CCCCC4)cc3)cc2)CC1
(B) N#CCNC(=O)C1(NC(=O)c2ccc(-c3ccc(S(=O)(=O)N4CCN(CC(F)(F)F)CC4)cc3)cc2)CCCCC1
(C) CC(C)(C)N1CCN(c2ccc(-c3ccc(C(=O)NC4(C(=O)NCC#N)CCCCC4)cc3)cc2)CC1
(D) N#CCNC(=O)C1(NC(=O)c2ccc(-c3ccc(OC4CCN(CCO)CC4)cc3)cc2)CCCCC1
Asked: Output the entries ranked by clearance from maximum down to minimum. Write out the labels following the order that was asked for.
Given back: D, A, C, B
